tested on: Mycobacterium tuberculosis; assay: Antimycobacterial activity against Mycobacterium tuberculosis H37Rv My 331/88 after 14 days by micromethod; type: functional; details: H37Rv My 331/88, 336 h
compounds and their reported MIC
observed property: MIC (µM)

1. O=C(Nc1ccc(C(F)(F)F)cc1)c1cc(Br)ccc1O : 1
2. O=C(Nc1ccc(Br)cc1)c1ccc(Br)cc1O : 2
3. O=C(Nc1ccc(C(F)(F)F)cc1)c1cc(Cl)c(Cl)cc1O : 2
4. O=C(Nc1cc(C(F)(F)F)cc(C(F)(F)F)c1)c1cc(Br)c(Cl)cc1O : 2
5. Nc1ccc(C(=O)O)c(O)c1 : 62.5

---

compounds and their reported MIC
system: Mycobacterium avium; experiment: Antimycobacterial activity against Mycobacterium avium My 330/80 after 21 days by micromethod; assay type: functional; settings: My 330/80, 504 h
observed property: MIC (µM)

1) O=C(Nc1cc(C(F)(F)F)cc(C(F)(F)F)c1)c1cc(Br)ccc1O : 16
2) O=C(Nc1ccc(Cl)c(Cl)c1)c1cc(Cl)c(Cl)cc1O : 62.5
3) O=C(Nc1cc(C(F)(F)F)cc(C(F)(F)F)c1)c1cc(Cl)c(Br)cc1O : 32
4) O=C(Nc1ccc(Cl)c(Cl)c1)c1cc(Br)c(Cl)cc1O : 125
5) O=C(Nc1ccc(C(F)(F)F)cc1)c1ccc(Cl)cc1O : 8
6) O=C(Nc1ccc(C(F)(F)F)cc1)c1ccc(Br)cc1O : 8
